Test system: Clostridium sporogenes DSM 1664
Assay: growth (OD595) fold change vs plate DMSO controls (fold change (ratio)); higher = more growth
Conditions: incubation time: 27 h, anaerobic, 37 °C
Where a name gives a salt, the structure may show the parent alone.
Endpoint Label: growth
Give bare numbers.

// known answers, use as guide
CCCC(=O)Nc1ncnc2c1ncn2[C@@H]1O[C@@H]2COP(=O)(O)O[C@H]2[C@H]1OC(=O)CCC [Bucladesine sodium salt] (20 µM): 0.934
O=C(O)CCC(=O)Nc1ccc(S(=O)(=O)Nc2nccs2)cc1 [Succinylsulfathiazole] (20 µM): 1.03
CCOC(=O)C1=C[C@@H](OC(CC)CC)[C@H](NC(C)=O)[C@@H](N)C1 [Oseltamivir phosphate] (20 µM): 0.866
CCCc1ncc(C[n+]2ccccc2C)c(N)n1 [Amprolium hydrochloride] (20 µM): 1.01
NS(=O)(=O)c1cc(C(=O)O)c(NCc2ccco2)cc1Cl [Furosemide] (20 µM): 0.941
CN(C)C(=N)NC(=N)N [Metformin hydrochloride] (20 µM): 0.988

Dear colleague, could you send me growth for each of the items below? Thanks.
1. CN1CCN2c3ncccc3Cc3ccccc3C2C1 (stereo not drawn) [Mirtazapine] (20 µM)
2. O=C(O)COc1nn(Cc2ccccc2)c2ccccc12 [Bendazac] (20 µM)

Result:
1: 1.09; 2: 1.19
